Listing of entries alongside the reported activity change, negative = inhibition.
experiment: AP1 Signaling Pathway (AID 357); conditions: ME-180 (cervical carcinoma) AP-1-bla reporter, EGF-induced, beta-lactamase ratio, 5 h; at 7.69 µM (top of the series) unless noted;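 also: ME-180 reporter cells stimulated with EGF at its EC50 level; % is scaled to controls: 0 for no effect and ±100 for the full control effect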
Results filed as inconclusive are left out.
readout-name: activity change, negative = inhibition (%)

                      smiles_representation                            readout_name  unit_of_measurement  numeric_result
0                 NC(CCl)=N[C@H]1CN2CCC1CC2  activity change, negative = inhibition                    %            5.68
1  CC(C)c1ccc(C(O)(C(=O)O)c2ccc(C(C)C)cc2)cc1  activity change, negative = inhibition                    %            2.63
2               N=C(N)n1cc(/C=N\N=C(N)N)cn1  activity change, negative = inhibition                    %            8.06
